target-desc: GST-BAI-1 Associated Protein PDZ domain 3 (Homo sapiens (Human)), Q96QZ7
Sequence (Q96QZ7 other isoform, or with tags, fused parts or gaps): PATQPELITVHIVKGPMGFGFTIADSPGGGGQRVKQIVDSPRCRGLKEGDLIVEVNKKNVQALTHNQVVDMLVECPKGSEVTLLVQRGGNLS
run-description: G' assay; note: key of the grades not given here
Reported Classification by item:

>  <binder>
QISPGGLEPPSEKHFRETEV (modifications not checked) [TAX]

>  <Classification>
1 A450 class

$$$$
>  <binder>
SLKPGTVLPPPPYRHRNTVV (modifications not checked) [ErbB-4 receptor]

>  <Classification>
1 A450 class

$$$$
>  <binder>
PGQPPKVKSEFNSYSLTGYV (modifications not checked) [claudin 2]

>  <Classification>
1 A450 class

$$$$
>  <binder>
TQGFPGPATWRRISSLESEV (modifications not checked) [NMDA Glutamate Receptor 2C (cysteine-free)]

>  <Classification>
1 A450 class

$$$$
>  <binder>
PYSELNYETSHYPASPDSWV (modifications not checked) [catenin - delta 2]

>  <Classification>
1 A450 class

$$$$
>  <binder>
DTLLLTENEGDKTEEQVSYV (modifications not checked) [serotonin receptor 5HT-2B]

>  <Classification>
4 A450 class

$$$$
>  <binder>
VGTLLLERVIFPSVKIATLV (modifications not checked) [AdenoE4 typ9]

>  <Classification>
5 A450 class

$$$$
>  <binder>
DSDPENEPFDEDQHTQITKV (modifications not checked) [PTEN]

>  <Classification>
2 A450 class

$$$$
>  <binder>
EDPKDRPSAAHIVEALETDV (modifications not checked) [PDZ-binding kinase (PBK)]

>  <Classification>
1 A450 class

$$$$
